Data credit: patent US20250144094A1

- target.or.test.system: Recombinant human ULK1 (1-649) (Homo sapiens (Human), UniProt O75385)
- Sequence (O75385 1-649): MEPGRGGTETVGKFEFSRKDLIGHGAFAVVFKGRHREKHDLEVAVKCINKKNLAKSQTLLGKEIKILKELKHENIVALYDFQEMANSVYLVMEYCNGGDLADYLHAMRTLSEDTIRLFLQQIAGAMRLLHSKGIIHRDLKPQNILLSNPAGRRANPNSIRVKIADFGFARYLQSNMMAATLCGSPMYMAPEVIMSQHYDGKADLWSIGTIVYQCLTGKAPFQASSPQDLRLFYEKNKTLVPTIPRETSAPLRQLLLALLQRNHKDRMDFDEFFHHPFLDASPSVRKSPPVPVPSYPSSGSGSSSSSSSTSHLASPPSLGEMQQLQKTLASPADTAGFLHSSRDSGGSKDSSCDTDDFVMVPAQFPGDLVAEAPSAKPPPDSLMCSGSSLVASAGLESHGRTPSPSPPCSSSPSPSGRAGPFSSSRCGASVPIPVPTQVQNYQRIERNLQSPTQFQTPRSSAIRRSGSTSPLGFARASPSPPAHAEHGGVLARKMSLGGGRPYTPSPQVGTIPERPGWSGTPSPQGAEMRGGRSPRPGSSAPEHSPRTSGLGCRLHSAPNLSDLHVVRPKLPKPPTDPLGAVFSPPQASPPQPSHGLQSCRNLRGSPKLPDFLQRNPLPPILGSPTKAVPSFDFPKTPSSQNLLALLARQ
- procedure.summary: ULK1 ADP Glo kinase activity assay, new method (ULKtide peptide substrate)
- setup.conditions: 25° C., 40 minutes, read-out: ULK1 biochemical IC50
assay.readout: IC50

Known results for compounds:
CN1CCN(c2ccc(Nc3ncc(C(F)(F)F)c(-c4cc5c(s4)C(=O)N(C4CC4)CCS5(=O)=O)n3)c(C3CC3)c2)C[C@@H]1CO	≤ 5 nM
C[C@@H]1CN(c2ccc(Nc3ncc(C(F)(F)F)c(-c4cc5c(s4)C(=O)N(C4CC4)CCS5(=O)=O)n3)c(C3CC3)c2)CCN1	≤ 5 nM

Req: For the compound CCN1CCS(=O)(=O)c2cc(-c3nc(Nc4cc5c(cc4Cl)CCNC5)ncc3C(F)(F)F)sc2C1=O , what IC50 is on record?
Resp: ≤ 5 nM

====

- target.or.test.system: Recombinant human ULK1 (1-649) (Homo sapiens (Human))
- procedure.summary: ULK1 ADP Glo kinase activity assay (MBP substrate)
- setup.conditions: 25° C., 40 minutes, read-out: ULK1 biochemical IC50
assay.readout: IC50

CN1CCc2cc(Nc3ncc(C(F)(F)F)c(-c4cc(S(C)(=O)=O)c(CN5CCOCC5)s4)n3)c(Cl)cc2C1	10 to 50 nM

Req: For the compound CN(C)C(=O)c1ccc(-c2nc(Nc3cc4c(cc3Cl)CNCC4)ncc2C(F)(F)F)s1 , what IC50 is on record?
Resp: ≤ 10 nM

Req: Next entry: CCc1cc2c(cc1Nc1ncc(C(F)(F)F)c(-c3cc(C(N)=O)cs3)n1)CN(C)C2
Resp: 10 to 50 nM

Req: Next entry: CN1CCc2cc(Nc3ncc(C(F)(F)F)c(-c4cc(S(C)(=O)=O)cs4)n3)c(C3CC3)cc2C1
Resp: ≤ 10 nM

====

Known IC50 of a selection of compounds
- target.or.test.system: Recombinant human ULK1 (1-649) (Homo sapiens (Human))
- procedure.summary: ULK1 ADP Glo kinase activity assay, new method (ULKtide peptide substrate)
- setup.conditions: 25° C., 40 minutes, read-out: ULK1 biochemical IC50

C[C@H]1CN(c2ccc(Nc3ncc(C(F)(F)F)c(-c4cc5c(s4)C(=O)N(C4CC4)CCS5(=O)=O)n3)c(C3CC3)c2)C[C@H](C)N1C	5 to 10 nM
C[C@H]1CN(c2ccc(Nc3ncc(C(F)(F)F)c(-c4cc5c(s4)C(=O)N(C4COC4)CCS5(=O)=O)n3)c(C3CC3)c2)C[C@H](C)N1	≤ 5 nM
CN1CCS(=O)(=O)c2cc(-c3nc(Nc4cc5c(cc4C4CC4)CNCC5)ncc3C(F)(F)F)sc2C1=O	≤ 5 nM

Req: Notebook entry, Recombinant human ULK1 (1-649) (Homo sapiens (Human)) assay: IC50 of CCc1cc2c(cc1Nc1ncc(C(F)(F)F)c(-c3cc4c(s3)C(=O)N(C3CC3)CCS4(=O)=O)n1)CCNC2 = ?
Resp: ≤ 5 nM

Req: Next entry: CCc1cc(N2C[C@H]3CC[C@@H](C2)N3)ccc1Nc1ncc(C(F)(F)F)c(-c2cc3c(s2)C(=O)N(C2CC2)CCS3(=O)=O)n1
Resp: ≤ 5 nM

Req: Next entry: O=C1c2sc(-c3nc(Nc4cc5c(nc4C4CC4)CNCC5)ncc3C(F)(F)F)cc2S(=O)(=O)CCN1C1COC1
Resp: ≤ 5 nM

Req: Next entry: C[C@@H]1CN(c2ccc(Nc3ncc(C(F)(F)F)c(-c4cc5c(s4)C(=O)N(C4CC4)CCS5(=O)=O)n3)c(C3CC3)c2)C[C@H](C)N1
Resp: ≤ 5 nM

Req: Next entry: CCc1cc(N2CCNCC2)ccc1Nc1ncc(C(F)(F)F)c(-c2cc3c(s2)C(=O)N(C2COC2)CCS3(=O)=O)n1
Resp: ≤ 5 nM

Req: Next entry: CC1(CN2CCc3cc(Nc4ncc(C(F)(F)F)c(-c5cc6c(s5)C(=O)N(C5COC5)CCS6(=O)=O)n4)c(C4CC4)cc3C2)COC1
Resp: ≤ 5 nM

Req: Next entry: CCc1cc2c(cc1Nc1ncc(C(F)(F)F)c(-c3cc4c(s3)C(=O)NCCS4(=O)=O)n1)CCN(C)C2
Resp: ≤ 5 nM

Req: Next entry: CCc1cc(N2CCNCC2)ccc1Nc1ncc(C(F)(F)F)c(-c2cc3c(s2)C(=O)N(C)CCS3(=O)=O)n1
Resp: ≤ 5 nM

Req: Next entry: CN1Cc2cc(Cl)c(Nc3ncc(C(F)(F)F)c(-c4cc5c(s4)C(=O)N(C)CCS5(=O)=O)n3)cc2C1
Resp: ≤ 5 nM

Req: Next entry: CN1CCS(=O)(=O)c2cc(-c3nc(Nc4ccc5c(c4C4CC4)CNC5)ncc3C(F)(F)F)sc2C1=O
Resp: 10 to 50 nM
